Values from the RNAGym collection of RNA variant scans (doi:10.1038/s41586-018-0170-7)

B1: tRNA (parent)
chain: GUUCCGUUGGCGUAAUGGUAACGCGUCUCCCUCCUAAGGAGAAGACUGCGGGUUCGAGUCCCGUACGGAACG

Variants of: B1
Test: yeast fitness, log relative to wild type (ln ratio); higher = fitter; tRNA-Arg(CCU), competitive growth, 37 C, 1 M NaCl
Recorded Metric: yeast fitness (ln)

U2G C27U C46U C66U A69G A70G	-0.187
C46U C66A A70U	0.00705
U2C G6U C27U A43C C46U C66U A69G A70U	-0.3
G1A U2G A43C C46U C66A A69G A70G C71U	-0.24

**Query** Param item = U2C G6A A43C A69G A70G C71U ; retrieve measured yeast fitness (ln).
**Result** -0.153
